System: C57BL/6 J mice
Assay: Body temperature change in mice (dose-response sessions)
Assay type: in vivo, mouse
Settings: 0.3 mg/kg s.c.; pre to post 30-min session; mean ± SEM
Experimental: Behavioral studies were conducted as previously described with minor modifications. […] During experimental testing, mice were tested once every 1–2 weeks to avoid potential tolerance to behavioral effects of the test drugs and were tested 2–3 times in total per drug. […] Videos for each mouse were analyzed post session using commercially available software used to quantify HTR as previously described. […]
endpoint name: ΔTemperature
Include the unit right after the number.

Value of ΔTemperature reported for the compound CCCCc1cc(OC)c(CC(C)N)cc1OC (centres unmarked) [DOBU, 4-butyl-2,5-dimethoxyamphetamine] is 0.1 ± 0.1 °C

Value of ΔTemperature reported for the compound COc1ccc(OC)c(CC(C)N)c1.Cl (centres unmarked) [2,5-DMA, 2,5-Dimethoxyamphetamine hydrochloride] is 0.5 ± 0.1 °C

Value of ΔTemperature reported for the compound COc1cc(CC(C)N)c(OC)cc1C (centres unmarked) [DOM, 4-methyl-2,5-dimethoxyamphetamine] is -0.1 ± 0.1 °C

Value of ΔTemperature reported for the compound CCCCCc1cc(OC)c(CC(C)N)cc1OC (centres unmarked) [DOAM, 4-amyl-2,5-dimethoxyamphetamine] is -0.3 ± 0.2 °C

Value of ΔTemperature reported for the compound CCCc1cc(OC)c(CC(C)N)cc1OC.Cl (centres unmarked) [DOPR] is 0.0 ± 0.2 °C

---

tested on: C57BL/6 J mice; assay: Locomotor activity in mice (dose-response sessions); assay type: in vivo, mouse; conditions: 0.03 mg/kg s.c.; 30-min session; mean ± SEM
For each of the molecules below, state its Locomotor activity (distance traveled).

Value of Locomotor activity (distance traveled) reported for the molecule CCCCc1cc(OC)c(CC(C)N)cc1OC (centres unmarked) [DOBU, 4-butyl-2,5-dimethoxyamphetamine] is 2,386 ± 181 cm

Value of Locomotor activity (distance traveled) reported for the molecule COc1cc(CC(C)N)c(OC)cc1C (centres unmarked) [DOM, 4-methyl-2,5-dimethoxyamphetamine] is 2,696 ± 154 cm

Value of Locomotor activity (distance traveled) reported for the molecule CCCc1cc(OC)c(CC(C)N)cc1OC.Cl (centres unmarked) [DOPR] is 2,493 ± 199 cm

Value of Locomotor activity (distance traveled) reported for the molecule COc1ccc(OC)c(CC(C)N)c1.Cl (centres unmarked) [2,5-DMA, 2,5-Dimethoxyamphetamine hydrochloride] is 2,854 ± 266 cm

Value of Locomotor activity (distance traveled) reported for the molecule CCCCCc1cc(OC)c(CC(C)N)cc1OC (centres unmarked) [DOAM, 4-amyl-2,5-dimethoxyamphetamine] is 2,867 ± 167 cm

---

target: UniProt:P41595; assay: IP1 formation (Gαq-mediated signaling), h5-HT2B
Sequence (P41595 whole entry): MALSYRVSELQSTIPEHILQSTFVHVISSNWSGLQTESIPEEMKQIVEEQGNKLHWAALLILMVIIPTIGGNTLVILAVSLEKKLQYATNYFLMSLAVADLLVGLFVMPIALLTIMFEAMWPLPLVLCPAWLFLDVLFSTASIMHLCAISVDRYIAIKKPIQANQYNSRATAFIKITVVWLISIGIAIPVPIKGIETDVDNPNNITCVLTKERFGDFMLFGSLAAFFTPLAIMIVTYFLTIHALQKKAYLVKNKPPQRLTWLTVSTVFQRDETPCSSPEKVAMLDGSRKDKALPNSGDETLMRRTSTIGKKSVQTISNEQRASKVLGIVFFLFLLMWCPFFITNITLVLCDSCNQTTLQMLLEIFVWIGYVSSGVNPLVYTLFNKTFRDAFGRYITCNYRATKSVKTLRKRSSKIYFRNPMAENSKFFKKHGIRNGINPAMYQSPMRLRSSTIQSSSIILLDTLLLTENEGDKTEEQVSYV
endpoint name: EC50 (nM)
Give just the numeric value; nM need not be written.

Value of EC50 reported for the compound CCCCCc1cc(OC)c(CC(C)N)cc1OC (stereo not drawn) [DOAM, 4-amyl-2,5-dimethoxyamphetamine] is 572

Value of EC50 reported for the compound COc1cc(CC(C)N)c(OC)cc1C (stereo not drawn) [DOM, 4-methyl-2,5-dimethoxyamphetamine] is 688

Value of EC50 reported for the compound CCc1cc(OC)c(CC(C)N)cc1OC (stereo not drawn) [DOET, 4-ethyl-2,5-dimethoxyamphetamine] is 236

Value of EC50 reported for the compound CCCc1cc(OC)c(CC(C)N)cc1OC.Cl (stereo not drawn) [DOPR] is 228

Value of EC50 reported for the compound CCCCc1cc(OC)c(CC(C)N)cc1OC (stereo not drawn) [DOBU, 4-butyl-2,5-dimethoxyamphetamine] is 570

Value of EC50 reported for the compound COc1ccc(OC)c(CC(C)N)c1.Cl (stereo not drawn) [2,5-DMA, 2,5-Dimethoxyamphetamine hydrochloride] is 93300
